Target: Signal transducer and activator of transcription 3 (Homo sapiens) (UniProt P40763)
Sequence (P40763 whole entry, looked up): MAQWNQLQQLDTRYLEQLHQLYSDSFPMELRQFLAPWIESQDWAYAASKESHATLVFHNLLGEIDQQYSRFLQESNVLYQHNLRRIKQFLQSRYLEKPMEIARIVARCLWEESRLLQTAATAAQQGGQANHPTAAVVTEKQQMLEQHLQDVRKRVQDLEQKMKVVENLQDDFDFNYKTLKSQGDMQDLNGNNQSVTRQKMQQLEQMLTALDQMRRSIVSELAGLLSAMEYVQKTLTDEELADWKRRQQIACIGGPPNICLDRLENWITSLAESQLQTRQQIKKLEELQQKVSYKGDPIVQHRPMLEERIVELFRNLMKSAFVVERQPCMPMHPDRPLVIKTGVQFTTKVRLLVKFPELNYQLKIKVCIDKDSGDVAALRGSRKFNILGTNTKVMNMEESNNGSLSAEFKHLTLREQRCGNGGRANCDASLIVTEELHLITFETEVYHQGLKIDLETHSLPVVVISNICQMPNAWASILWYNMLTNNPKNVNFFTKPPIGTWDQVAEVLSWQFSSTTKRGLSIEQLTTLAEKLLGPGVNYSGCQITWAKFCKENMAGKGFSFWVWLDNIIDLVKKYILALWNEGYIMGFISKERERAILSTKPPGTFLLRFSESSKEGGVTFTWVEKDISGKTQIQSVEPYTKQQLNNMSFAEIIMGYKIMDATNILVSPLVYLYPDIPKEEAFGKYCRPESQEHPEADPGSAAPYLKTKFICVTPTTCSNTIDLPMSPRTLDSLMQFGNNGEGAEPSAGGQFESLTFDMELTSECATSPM
Assay: ATG_STAT3_CIS: Attagene CIS-FACTORIAL HepG2 Assay for human Signal Transducer and Activator of Transcription 3 (STAT3) (AID 2282963)
Conditions: HepG2, Attagene cis-factorial STAT3 reporter transcription; actives raise or lower the signal
Active and inactive are the calls of the source. The calls were made as follows: active = hit-call score of the fitted dose curve at least 0.9, where 1 is the maximum; inactive = score below 0.9.
Labels: 1 (active), -1 (inactive)

>  <molecule>
O=C(O)C1CCC(C(=O)O)CC1 (stereo not drawn)

>  <target_under_test>
Signal transducer and activator of transcription 3 (Homo sapiens) (UniProt P40763)

>  <discrete_label>
-1

$$$$
>  <molecule>
CCOc1ccc(NC(N)=O)cc1

>  <target_under_test>
Signal transducer and activator of transcription 3 (Homo sapiens) (UniProt P40763)

>  <discrete_label>
-1

$$$$
>  <molecule>
C[N+](C)(C)CCCNS(=O)(=O)C(F)(F)C(F)(F)C(F)(F)C(F)(F)C(F)(F)C(F)(F)C(F)(F)C(F)(F)F

>  <target_under_test>
Signal transducer and activator of transcription 3 (Homo sapiens) (UniProt P40763)

>  <discrete_label>
-1

$$$$
>  <molecule>
Oc1ccc(-c2ccccc2)c(Cl)c1

>  <target_under_test>
Signal transducer and activator of transcription 3 (Homo sapiens) (UniProt P40763)

>  <discrete_label>
1

$$$$
>  <molecule>
Cc1cc(C)n(CO)n1

>  <target_under_test>
Signal transducer and activator of transcription 3 (Homo sapiens) (UniProt P40763)

>  <discrete_label>
-1

$$$$
>  <molecule>
CC1OC(=O)C(C)OC1=O (stereo not drawn)

>  <target_under_test>
Signal transducer and activator of transcription 3 (Homo sapiens) (UniProt P40763)

>  <discrete_label>
-1

$$$$
>  <molecule>
CC(C)c1cc(C(C)C)cc(C(C)C)c1

>  <target_under_test>
Signal transducer and activator of transcription 3 (Homo sapiens) (UniProt P40763)

>  <discrete_label>
-1

$$$$
>  <molecule>
N#CC1(N)CCCCC1

>  <target_under_test>
Signal transducer and activator of transcription 3 (Homo sapiens) (UniProt P40763)

>  <discrete_label>
-1

$$$$
>  <molecule>
Cc1c(C(=O)c2c[nH]n(C)c2=O)ccc(S(C)(=O)=O)c1C1=NOCC1

>  <target_under_test>
Signal transducer and activator of transcription 3 (Homo sapiens) (UniProt P40763)

>  <discrete_label>
-1

$$$$
>  <molecule>
CCCCCOC(=O)CCCCC

>  <target_under_test>
Signal transducer and activator of transcription 3 (Homo sapiens) (UniProt P40763)

>  <discrete_label>
-1

$$$$
>  <molecule>
CCOC(=O)C1=NN(c2ccc(Cl)cc2Cl)C(C)(C(=O)OCC)C1 (stereo not drawn)

>  <target_under_test>
Signal transducer and activator of transcription 3 (Homo sapiens) (UniProt P40763)

>  <discrete_label>
-1

$$$$
>  <molecule>
Nc1ccnc(=O)[nH]1

>  <target_under_test>
Signal transducer and activator of transcription 3 (Homo sapiens) (UniProt P40763)

>  <discrete_label>
-1

$$$$
>  <molecule>
CC(=O)c1ccc(S(=O)(=O)NC(=O)NC2CCCCC2)cc1

>  <target_under_test>
Signal transducer and activator of transcription 3 (Homo sapiens) (UniProt P40763)

>  <discrete_label>
-1

$$$$
